Target: T1, CRBN, Q96SW2;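 note: pooled lentiviral library of zinc finger degron-EGFP fusions in mCherry-positive Jurkat cells, FACS-sorted after compound exposure, with degron abundance counted by next-generation sequencing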
T1 chain: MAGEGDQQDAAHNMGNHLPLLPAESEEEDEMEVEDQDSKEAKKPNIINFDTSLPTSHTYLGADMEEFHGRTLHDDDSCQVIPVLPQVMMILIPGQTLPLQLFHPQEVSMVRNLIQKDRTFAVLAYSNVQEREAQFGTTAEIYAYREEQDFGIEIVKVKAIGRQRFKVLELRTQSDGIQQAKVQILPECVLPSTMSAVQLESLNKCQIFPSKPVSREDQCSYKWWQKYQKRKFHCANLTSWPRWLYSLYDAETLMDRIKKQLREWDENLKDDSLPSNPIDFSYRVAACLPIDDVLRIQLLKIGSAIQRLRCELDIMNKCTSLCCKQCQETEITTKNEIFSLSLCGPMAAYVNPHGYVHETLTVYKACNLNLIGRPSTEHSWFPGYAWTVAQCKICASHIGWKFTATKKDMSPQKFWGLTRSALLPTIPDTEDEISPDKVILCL
Assay: log2 fold change of degron read counts, EGFP-low vs EGFP+ sorted cells (limma voom), compound-induced degradation; higher = more compound-induced degradation of the degron-EGFP fusion; degrons are variants of IKZF1/3 zinc finger 2; compound dose not given here
Conditions: Jurkat; 18 h; compound: compound 33 (diphenyl IMiD analogue)
Whole data set: some 8,300 sequences, median “log2 fold change of degron read counts, EGFP-low vs EGFP+ sorted cells (limma voom), compound-induced degradation” near -1.1, cut for the highest 2% near 3.2. Shown is part of a subset that was picked to be rich in the highest values.
We'd kindly ask you to apply these log2 fold change of degron read counts classes: low interval (below -2), middle interval (-2 to below 1), high interval (1 or more)

Here are 10 sequences together with their reported answers.
query: Bin this entry: FDCEICGREFTQKGNLLRHIKL [46F_47D_49E_50I_52G_53R_54E_55F_67L_, Q9UKT9]
result: low interval

query: Quick check: band for FTCSVCGHAFTQKGNLLRHIKL [46F_47T_49S_50V_52G_53H_54A_55F_67L_, Q9UKT9]
result: low interval

query: Which class does FSCPQCGAHFTQKGNLLRHIKL [46F_47S_49P_50Q_52G_53A_54H_55F_67L_, Q9UKT9] fall in?
result: middle interval

query: Exam item: assign FHCPICGATFTQKGNLLRHIKL [46F_47H_49P_50I_52G_53A_54T_55F_67L_, Q9UKT9] to the correct category.
result: high interval

query: // return the class label for LQCPICGFMCTQKGNLLRHIKL [46L_47Q_49P_50I_52G_53F_54M_55C_67L_, Q9UKT9]
result: high interval

query: Quick check: band for FCCDICGATFTQKGNLLRHIKL [46F_47C_49D_50I_52G_53A_54T_55F_67L_, Q9UKT9]
result: high interval

query: Could you tell me which band FECPICGHSFTQKGNLLRHIKL [46F_47E_49P_50I_52G_53H_54S_55F_67L_, Q9UKT9] belongs to?
result: middle interval

query: Band assignment needed for LYCPICGFMCTQKGNLLRHIKL [46L_47Y_49P_50I_52G_53F_54M_55C_67L_, Q9UKT9] please.
result: high interval

query: Textbook exercise: identify the category of the sequence given here, FLCNVCGASFTQKGNLLRHIKL [46F_47L_49N_50V_52G_53A_54S_55F_67L_, Q9UKT9] , according to its measured value.
result: middle interval

query: Each sequence maps to one class by log2 fold change of degron read counts. Which class for LYCNQCGFVCTQKGNLLRHIKL [46L_47Y_49N_50Q_52G_53F_54V_55C_67L_, Q9UKT9] ?
result: middle interval

---
query: Could you place FVCNQCGRTFTQKGNLLRHIKL [46F_47V_49N_50Q_52G_53R_54T_55F_67L_, Q9UKT9] in its proper category? Many thanks.
result: low interval

query: Which of the defined bands does the recorded log2 fold change of degron read counts of LKCPICGFMCTQKGNLLRHIKL [46L_47K_49P_50I_52G_53F_54M_55C_67L_, Q9UKT9] sit within?
result: middle interval

query: Category lookup for the sequence FDCSVCGHIFTQKGNLLRHIKL [46F_47D_49S_50V_52G_53H_54I_55F_67L_, Q9UKT9]
result: middle interval

query: Where would LSCPICGFMCTQKGNLLRHIKL [46L_47S_49P_50I_52G_53F_54M_55C_67L_, Q9UKT9] land among the classes by reported log2 fold change of degron read counts?
result: high interval
